target: N-formyl peptide receptor 2 (Homo sapiens, UniProt P25090); assay: Agonist activity at human FPR2 transfected in human HL-60 cells assessed as increase in calcium mobilization measured every 5 seconds for 240 secs by Fluo-4-AM dye based fluorescence assay
Sequence (P25090 whole entry): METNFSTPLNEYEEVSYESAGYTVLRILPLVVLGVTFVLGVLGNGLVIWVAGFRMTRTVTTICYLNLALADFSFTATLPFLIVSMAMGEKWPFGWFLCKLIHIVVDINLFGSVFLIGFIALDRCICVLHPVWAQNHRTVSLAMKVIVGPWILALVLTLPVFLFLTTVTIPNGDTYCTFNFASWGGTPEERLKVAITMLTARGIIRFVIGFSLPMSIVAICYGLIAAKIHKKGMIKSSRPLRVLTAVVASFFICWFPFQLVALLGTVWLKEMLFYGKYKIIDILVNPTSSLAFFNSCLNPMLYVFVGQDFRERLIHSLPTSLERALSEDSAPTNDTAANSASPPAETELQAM
// NB: equality with 300 nM counts as no; only EC50 strictly below is yes

Prompt line: Bench note: check whether N#Cc1ccc(C[C@@H](NC(=O)Nc2ccc(F)cc2)C(=O)NC2CCCCNC2=O)cc1 (stereo partly drawn) shows EC50 below 300 nM
Response line: no

Prompt line: Quick check: EC50 of `N#Cc1ccc(C[C@@H](NC(=O)Nc2ccc(F)cc2)C(=O)N2CCc3ccccc3C2)cc1` under 300 nM?
Response line: no

Prompt line: Answer whether the molecule `N#Cc1ccc(C[C@H](NC(=O)Nc2ccc(F)cc2)C(=O)N2CCCc3ccccc32)cc1` has EC50 strictly less than 300 nM
Response line: yes

Prompt line: Threshold test, EC50 < 300 nM: `N#Cc1ccc(C[C@H](NC(=O)Nc2ccc(F)cc2)C(=O)N2CCc3ccccc3C2)cc1`
Response line: yes

###

Catalogue of IC50 readings, one per entry.
target: N-formyl peptide receptor 2 (Homo sapiens); test: Antagonist activity at human FPR2 transfected in human HL-60 cells assessed as inhibition of WKYMVM-induced intracellular calcium mobilization preincubated for 10 mins followed by WKYMVM addition measured every 5 seconds for 240 secs by Fluo-4-AM dye based fluorescence assay
Numbers only here, please. The scale is µM.

Study these solved cases before continuing.
N#Cc1ccc(C[C@H](NC(=O)Nc2ccc(F)cc2)C(=O)N2CCc3ccc(F)cc3C2)cc1    0.26
N#Cc1ccc(C[C@H](NC(=O)Nc2ccc(F)cc2)C(=O)N2CCc3ccccc3C2)cc1    0.03
CC1(C)CN(C(=O)[C@@H](Cc2ccc(C#N)cc2)NC(=O)Nc2ccc(F)cc2)c2ccccc21    16.4

API: the following record is the query input.
What the record says about `N#Cc1ccc(C[C@H](NC(=O)Nc2ccc(F)cc2)C(=O)N2CCCCC2)cc1` : IC50 is 12

###

test: Metabolic stability in rat liver microsomes assessed as compound remaining at 10 uM preincubated for 10 mins followed by NADPH addition and measured after 30 mins by HPLC analysis; format: ADME, Microsome; conditions: time 40 min, read-out: Stability
Classes are defined on remaining at 0.5 h, 10 µM with ranges low group = under 20%, middle group = from 20% up to 60%, high group = 60% and over

Prompt line: Category of `N#Cc1ccc(C[C@H](NC(=O)Nc2ccc(F)cc2)C(=O)N2CCCc3ccccc32)cc1` , please.
Response line: low group

Prompt line: Input `N#Cc1ccc(C[C@@H](NC(=O)Nc2ccc(F)cc2)C(=O)N2Cc3ccc(F)cc3C2)cc1` ; output its category
Response line: high group

Prompt line: Into which category would you place `N#Cc1ccc(C[C@H](NC(=O)Nc2ccc(F)cc2)C(=O)N2CCc3ccccc32)cc1` ?
Response line: middle group

Prompt line: Note: place this compound into its band. Item: `N#Cc1ccc(C[C@@H](NC(=O)Nc2ccc(F)cc2)C(=O)N2CCc3ccc(F)cc3C2)cc1`
Response line: low group

Prompt line: In plain terms, what class is `N#Cc1ccc(C[C@@H](NC(=O)Nc2ccc(F)cc2)C(=O)N2CCc3cccnc32)cc1` ?
Response line: low group

Prompt line: Note: place this compound into its band. Item: `CC1(C)CN(C(=O)[C@@H](Cc2ccc(C#N)cc2)NC(=O)Nc2ccc(F)cc2)c2ccccc21`
Response line: high group

Prompt line: Which band does `N#Cc1ccc(C[C@H](NC(=O)Nc2ccc(F)cc2)C(=O)N2CCc3ccc(F)cc3C2)cc1` fall in?
Response line: low group

Prompt line: Lab note: sort `N#Cc1ccc(C[C@H](NC(=O)Nc2ccc(F)cc2)C(=O)N2CCC(F)(F)CC2)cc1` into the matching remaining at 0.5 h, 10 µM band.
Response line: high group

Prompt line: // bin(item) where item = `N#Cc1ccc(C[C@@H](NC(=O)Nc2ccc(F)cc2)C(=O)N2CCc3ccc(F)cc32)cc1`
Response line: middle group

Prompt line: Pick a category. Item: `N#Cc1ccc(C[C@H](NC(=O)Nc2ccc(F)cc2)C(=O)N2Cc3ccccc3C2)cc1`
Response line: middle group

Prompt line: The entry to classify is `N#Cc1ccc(C[C@H](NC(=O)Nc2ccc(F)cc2)C(=O)N2CCc3cc(F)ccc32)cc1` ; which class holds it?
Response line: low group

Prompt line: Input N#Cc1ccc(C[C@@H](NC(=O)Nc2ccc(F)cc2)C(=O)NC2CCCCNC2=O)cc1 (some centres undefined) ; output its category
Response line: high group

Prompt line: Which category fits this record: N#Cc1ccc(C[C@H](NC(=O)Nc2ccc(F)cc2)C(=O)NC2CCCCNC2=O)cc1 (some centres undefined)
Response line: high group

###

target: N-formyl peptide receptor 2 (Homo sapiens); experiment: Agonist activity at human FPR2 transfected in human HL-60 cells assessed as increase in calcium mobilization measured every 5 seconds for 240 secs by Fluo-4-AM dye based fluorescence assay
List of EC50 values.
Just the number in nM, nothing appended.

// known answers, use as guide
N#Cc1ccc(C[C@H](NC(=O)Nc2ccc(F)cc2)C(=O)N2CCCCC2)cc1    980
N#Cc1ccc(C[C@@H](NC(=O)Nc2ccc(F)cc2)C(=O)N2CCc3ccc(F)cc3C2)cc1    620
N#Cc1ccc(C[C@@H](NC(=O)Nc2ccc(F)cc2)C(=O)N2CCc3cc(F)ccc32)cc1    410

Now consider a different compound.
# EC50 (compound: N#Cc1ccc(C[C@H](NC(=O)Nc2ccc(F)cc2)C(=O)NC2CCCCNC2=O)cc1 (some centres undefined) ) is 170
